experiment: CCTE_Mundy_HCI_Cortical_NOG_BPCount: CCTE's Neurite Outgrowth Assay in rat cortical cells for Branch Point Count, Mundy Lab (AID 2284237)
Activity calls are given as the source filed them. The calls were made as follows: active = hit-call score of the fitted dose curve at least 0.9, where 1 is the maximum; inactive = score below 0.9.
Your response should consist of one outcome taken from YES for active, NO for inactive

Request: Assay outcome for CCOP(=O)(Oc1cnc(C(C)(C)C)nc1)OC(C)C (stereo not given) : what was it?
Response: NO

Request: Assay result, entry `C#CCN(C)[C@H](C)Cc1ccccc1` — outcome?
Response: NO

Request: Could you kindly confirm the outcome this assay logged for `C[C@H](N)Cc1ccccc1` ?
Response: NO

Request: Which result was noted for this compound in the test: Cc1ccc(OP(=O)(Oc2ccc(C)cc2)Oc2ccc(C)cc2)cc1 (tested in a mixture with another compound)
Response: YES

Request: What classification did CNC(=N[N+](=O)[O-])NCC1CCOC1 (stereo not given) end up with in this test?
Response: NO

Request: Could you check what this test reported for `C[n+]1ccc(-c2cc[n+](C)cc2)cc1` ?
Response: YES

Request: What was the test verdict on `O=[As]O` ?
Response: YES

Request: Just curious, what result did `CC1(C)[C@@H](C=C(Cl)Cl)[C@@H]1C(=O)O[C@@H](C#N)c1ccc(F)c(Oc2ccccc2)c1` get here?
Response: NO

Request: Which outcome was assigned to CCOP(=O)(OCC)OC(Cl)C(Cl)(Cl)Cl (stereo not given) in this test?
Response: NO

Request: Assay outcome for `CCC[CH2][Sn]([CH2]CCC)([CH2]CCC)[O][Sn]([CH2]CCC)([CH2]CCC)[CH2]CCC` : what was it?
Response: YES

Request: What did the test return for `CCOP(=O)(OCC)SCSCC` ?
Response: YES

Request: Short answer needed: outcome of this test for CC1(C)C(C=C(Cl)c2ccc(Cl)cc2)C1C(=O)OC(C#N)c1ccc(F)c(Oc2ccccc2)c1 (stereo not given) ?
Response: YES

The reported numbers originate from PubChem BioAssay (EPA / NIEHS).
